Data origin: patent US8691187B2

# test.target: Aβ plaques (Homo sapiens, UniProt P05067)
# Construct: Native forms of tau (various isoforms, hyperphosphorylated) and amyloid aggregates are present in brain sections; from tissue; host or cells: human AD brain, frozen frontal lobe sections
# Sequence (P05067 672-713 limits assumed): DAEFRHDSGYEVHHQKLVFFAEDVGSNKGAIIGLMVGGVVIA
# experiment: Fluorescent compound staining on human AD brain sections (β-amyloid IHC double labeling)
# Format: binding
# condition.summary: Table 1 quinolines; 100 uM compound; qualitative rating + to ++++ or words
# Excerpt: Native forms of tau (various isoforms, hyperphosphorylated) and amyloid aggregates are present in brain sections and therefore preferred for compound testing. Using the self-fluorescence of a test compound can give an indication of whether the compound binds to tau tangles/PHFs and/or amyloid plaques. This is further confirmed by immunostaining with Aβ and tau antibodies and overlaying the images. […]
assay.readout: Brain Section Staining: Ab (amyloid)

compound | measured
Cl.Cl.FCCNc1ccc(-c2ccc3ccccc3n2)cc1 | weakly binds to Ab
CNc1ccc(-c2cnc3ccccc3c2)cc1 | binds to Ab mostly
Cn1cnc2ccc(-c3cc(F)c4ccccc4n3)cc21 [Compound T485, 2,2,2-trifluoroacetate] | weakly binds to Ab
CN(C)c1ccc(/C=C/c2ccc3cc(F)ccc3n2)cc1 | binds to Ab
CN(C)c1ccc(/C=C/c2cnc3ccccc3n2)cc1 | binds to Ab mostly
Cn1ccc2cc(-c3ccc4ccccc4n3)ccc21 | binds to Ab
FCCOCCOCCNc1ccc(-c2ccc3ccccc3n2)cc1 | binds to Tau and Ab
CNc1ccc(-c2cc(F)c3ccccc3n2)cc1 | binds to tau and amyloid
FCCCNc1ccc(C#Cc2ccc3ccccc3n2)cc1 | binds to Ab
COc1ccc2nc(-c3ccc(N)c(F)c3)ccc2c1 | binds to tau and amyloid

Continue with the next compound.
Brain Section Staining: Ab (amyloid) for Aβ plaques (Homo sapiens, UniProt P05067) with input "CN(C)c1ccc(-c2cc(F)c3ccccc3n2)cc1" equals binds to Tau and Ab
